Cited source for all entries: patent US12419307B2

System: silverleaf whitefly (Bemisia argentifolii Bellows and Perring)
Procedure Text: Test A: silverleaf whitefly control on cotton or soybean plants, spray, insect mortality after 13 days
Assay type: in vivo
Experimental Setup: Bemisia argentifolii, Table 2c; applied alone, 50 ppm; read-out: % Mortality (obs)
Observed Property: mortality at 50 ppm (%)
Form entry: value (%) — number only.

Reference set, count: 4
CC1(NC(=O)c2cccc3nn(-c4cccnc4)cc23)CC1 | 16.1
C[S+]([O-])CC(C)(C)NC(=O)c1ccc(F)c2nn(-c3cccnc3)cc12 (centres unmarked) | 11.8
CSCC(C)(C)NC(=O)c1ccc(F)c2nn(-c3cccnc3)cc12 | 0
CC(C)(CS(C)(=O)=O)NC(=O)c1ccc(F)c2nn(-c3cccnc3)cc12 | 16.1

The record that follows has no mortality at 50 ppm shown yet.
Input: What value of mortality at 50 ppm has been recorded for this entry: O=C(NC1(C(F)F)CC1)c1cccc2nn(-c3cccnc3)cc12
Output: 56.5

---

Tested on: silverleaf whitefly (Bemisia argentifolii Bellows and Perring)
Procedure Text: Test A: silverleaf whitefly control on cotton or soybean plants, spray, insect mortality after 13 days
Assay type: in vivo
Experimental Setup: Bemisia argentifolii, Table 2g; applied alone, 50 ppm; read-out: % Mortality (obs)
// NB: equality with 30% counts as Not met; only mortality at 50 ppm strictly below is Met

Recorded results for 2 compounds are shown here.
CC(C)(CS(C)(=O)=O)NC(=O)c1ccc(F)c2nn(-c3cccnc3)cc12 | Met
C[S+]([O-])CC(C)(C)NC(=O)c1ccc(F)c2nn(-c3cccnc3)cc12 (centres unmarked) | Not met

Input: Lab log: compare recorded mortality at 50 ppm with 30%; is it strictly lower for CSCC(C)(C)NC(=O)c1ccc(F)c2nn(-c3cccnc3)cc12 ?
Output: Met

---

Test system: silverleaf whitefly (Bemisia argentifolii Bellows and Perring)
Procedure Text: Test A: silverleaf whitefly control on cotton or soybean plants, spray, insect mortality after 13 days
Assay type: in vivo
Experimental Setup: Bemisia argentifolii, Table 2e; applied alone, 250 ppm; read-out: % Mortality (obs)
Observed Property: mortality at 250 ppm (%)
Form entry: value (%) — number only.

Reference set, count: 4
O=C(NC1(C(F)F)CC1)c1cccc2nn(-c3cccnc3)cc12 [Cpd 5] | 11.2
CC1(NC(=O)c2cccc3nn(-c4cccnc4)cc23)CC1 [Cpd 4] | 38.3
CC(C)(CS(C)(=O)=O)NC(=O)c1ccc(F)c2nn(-c3cccnc3)cc12 [Cpd 3] | 1.2
CSCC(C)(C)NC(=O)c1ccc(F)c2nn(-c3cccnc3)cc12 [Cpd 1] | 2.2

The record that follows has no mortality at 250 ppm shown yet.
Input: What value of mortality at 250 ppm has been recorded for this entry: C[S+]([O-])CC(C)(C)NC(=O)c1ccc(F)c2nn(-c3cccnc3)cc12 (centres unmarked) [Cpd 2]
Output: 90.2

---

Listed here are compounds together with their documented mortality at 250 ppm.
Tested on: silverleaf whitefly (Bemisia argentifolii Bellows and Perring)
Procedure Text: Test A: silverleaf whitefly control on cotton or soybean plants, spray, insect mortality after 13 days
Type: in vivo
Experimental Setup: Bemisia argentifolii, Table 2f; applied alone, 250 ppm; read-out: % Mortality (obs)
Form entry: value (%) — number only.

Reference set, count: 2
CC1(NC(=O)c2cccc3nn(-c4cccnc4)cc23)CC1 [Cpd 4] | 17.9
CC(C)(CS(C)(=O)=O)NC(=O)c1ccc(F)c2nn(-c3cccnc3)cc12 [Cpd 3] | 25.3

Input: What value of mortality at 250 ppm has been recorded for this entry: C[S+]([O-])CC(C)(C)NC(=O)c1ccc(F)c2nn(-c3cccnc3)cc12 (centres unmarked) [Cpd 2]
Output: 90.6

Input: What value of mortality at 250 ppm has been recorded for this entry: O=C(NC1(C(F)F)CC1)c1cccc2nn(-c3cccnc3)cc12 [Cpd 5]
Output: 55.1

Input: What value of mortality at 250 ppm has been recorded for this entry: CSCC(C)(C)NC(=O)c1ccc(F)c2nn(-c3cccnc3)cc12 [Cpd 1]
Output: 0

---

Listed here are compounds together with their documented mortality at 250 ppm.
Tested on: silverleaf whitefly (Bemisia argentifolii Bellows and Perring)
Procedure Text: Test A: silverleaf whitefly control on cotton or soybean plants, spray, insect mortality after 13 days
Assay type: in vivo
Experimental Setup: Bemisia argentifolii, Table 2a; applied alone, 250 ppm; read-out: % Mortality (obs)
Form entry: value (%) — number only.

CC(C)(CS(C)(=O)=O)NC(=O)c1ccc(F)c2nn(-c3cccnc3)cc12 | 1.6
CSCC(C)(C)NC(=O)c1ccc(F)c2nn(-c3cccnc3)cc12 | 18.8
C[S+]([O-])CC(C)(C)NC(=O)c1ccc(F)c2nn(-c3cccnc3)cc12 (centres unmarked) | 74.5

Input: What value of mortality at 250 ppm has been recorded for this entry: O=C(NC1(C(F)F)CC1)c1cccc2nn(-c3cccnc3)cc12
Output: 13.5

Input: What value of mortality at 250 ppm has been recorded for this entry: CC1(NC(=O)c2cccc3nn(-c4cccnc4)cc23)CC1
Output: 11.1

---

Listed here are compounds together with their documented mortality at 250 ppm.
Test system: Potato Leafhopper (Empoasca fabae Harris)
Procedure Text: Test C: Potato Leafhopper control on bean plants, insect mortality after 6 days
Format: in vivo
Experimental Setup: Table 4b, 250 ppm, read-out: % Mortality (obs)
Form entry: value (%) — number only.

Reference set, count: 4
O=C(NC1(C(F)F)CC1)c1cccc2nn(-c3cccnc3)cc12 | 6.7
C[S+]([O-])CC(C)(C)NC(=O)c1ccc(F)c2nn(-c3cccnc3)cc12 (centres unmarked) | 85.7
CC(C)(CS(C)(=O)=O)NC(=O)c1ccc(F)c2nn(-c3cccnc3)cc12 | 0
CSCC(C)(C)NC(=O)c1ccc(F)c2nn(-c3cccnc3)cc12 | 6.7

Input: What value of mortality at 250 ppm has been recorded for this entry: CC1(NC(=O)c2cccc3nn(-c4cccnc4)cc23)CC1
Output: 14.3

---

Listed here are compounds together with their documented Plant Protection (obs).
System: diamondback moth (Plutella xylostella L.)
Procedure Text: Test E: diamondback moth control on mustard plants, contact and/or systemic, plant damage rating after 6 days
Format: in vivo
Experimental Setup: Table 6b; 50 ppm
Just the number, please, no unit attached.

C[S+]([O-])CC(C)(C)NC(=O)c1ccc(F)c2nn(-c3cccnc3)cc12 (centres unmarked) | 0.0
CSCC(C)(C)NC(=O)c1ccc(F)c2nn(-c3cccnc3)cc12 | 0.0
CC1(NC(=O)c2cccc3nn(-c4cccnc4)cc23)CC1 | 0.0
O=C(NC1(C(F)F)CC1)c1cccc2nn(-c3cccnc3)cc12 | 0.0

The record that follows has no Plant Protection (obs) shown yet.
Input: What value of Plant Protection (obs) has been recorded for this entry: CC(C)(CS(C)(=O)=O)NC(=O)c1ccc(F)c2nn(-c3cccnc3)cc12
Output: 0.0

---

Listed here are molecules together with their documented pest or weed control at 50 ppm.
Test system: fall armyworm (Spodoptera frugiperda (J. E. Smith))
Procedure Text: Test E: fall armyworm control on corn plants, plant damage rating and mortality after 6 days
Assay type: in vivo
Experimental Setup: Spodoptera frugiperda, 144 h, Table 6e; 50 ppm; read-out: Plant Protection (obs)
Reply with the number and its unit after it.

C[S+]([O-])CC(C)(C)NC(=O)c1ccc(F)c2nn(-c3cccnc3)cc12 (centres unmarked) | 0%

The record that follows has no pest or weed control at 50 ppm shown yet.
Input: What value of pest or weed control at 50 ppm has been recorded for this entry: CC(C)(CS(C)(=O)=O)NC(=O)c1ccc(F)c2nn(-c3cccnc3)cc12
Output: 0%

---

System: silverleaf whitefly (Bemisia argentifolii Bellows and Perring)
Procedure Text: Test A: silverleaf whitefly control on cotton or soybean plants, spray, insect mortality after 13 days
Type: in vivo
Experimental Setup: Bemisia argentifolii, 48 h, Table 2d; applied alone, 50 ppm; read-out: % Mortality (obs)
// NB: equality with 5% counts as label 0; only mortality at 50 ppm strictly below is label 1

Recorded results for 3 compounds are shown here.
CC(C)(CS(C)(=O)=O)NC(=O)c1ccc(F)c2nn(-c3cccnc3)cc12 [Cpd 3] | label 1
C[S+]([O-])CC(C)(C)NC(=O)c1ccc(F)c2nn(-c3cccnc3)cc12 (centres unmarked) [Cpd 2] | label 0
CSCC(C)(C)NC(=O)c1ccc(F)c2nn(-c3cccnc3)cc12 [Cpd 1] | label 1

Please turn your attention to the following entry.
Input: Lab log: compare recorded mortality at 50 ppm with 5%; is it strictly lower for O=C(NC1(C(F)F)CC1)c1cccc2nn(-c3cccnc3)cc12 [Cpd 5] ?
Output: label 0

---

System: fall armyworm (Spodoptera frugiperda (J. E. Smith))
Procedure Text: Test E: fall armyworm control on corn plants, plant damage rating and mortality after 6 days
Type: in vivo
Experimental Setup: Spodoptera frugiperda, 144 h, Table 6e; 50 ppm; read-out: Plant Protection (obs)
Listed here are molecules together with their documented pest or weed control at 50 ppm.
Reply with the number and its unit after it.

Reference set, count: 2
CC1(NC(=O)c2cccc3nn(-c4cccnc4)cc23)CC1 | 0%
CSCC(C)(C)NC(=O)c1ccc(F)c2nn(-c3cccnc3)cc12 | 0%

The record that follows has no pest or weed control at 50 ppm shown yet.
Input: What value of pest or weed control at 50 ppm has been recorded for this entry: O=C(NC1(C(F)F)CC1)c1cccc2nn(-c3cccnc3)cc12
Output: 0%
